measurementTarget: human plasma kallikrein (Homo sapiens, UniProt P03952)
Sequence (P03952 391-638 limits assumed): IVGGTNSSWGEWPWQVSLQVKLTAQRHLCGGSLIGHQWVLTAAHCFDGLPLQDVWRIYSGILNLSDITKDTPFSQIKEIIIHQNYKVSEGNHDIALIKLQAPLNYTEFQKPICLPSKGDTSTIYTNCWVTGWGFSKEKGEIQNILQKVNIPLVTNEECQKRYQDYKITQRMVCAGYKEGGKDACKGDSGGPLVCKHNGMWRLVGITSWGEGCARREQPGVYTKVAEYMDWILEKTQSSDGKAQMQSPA
Sequence (P03952 20-390 partner limits assumed): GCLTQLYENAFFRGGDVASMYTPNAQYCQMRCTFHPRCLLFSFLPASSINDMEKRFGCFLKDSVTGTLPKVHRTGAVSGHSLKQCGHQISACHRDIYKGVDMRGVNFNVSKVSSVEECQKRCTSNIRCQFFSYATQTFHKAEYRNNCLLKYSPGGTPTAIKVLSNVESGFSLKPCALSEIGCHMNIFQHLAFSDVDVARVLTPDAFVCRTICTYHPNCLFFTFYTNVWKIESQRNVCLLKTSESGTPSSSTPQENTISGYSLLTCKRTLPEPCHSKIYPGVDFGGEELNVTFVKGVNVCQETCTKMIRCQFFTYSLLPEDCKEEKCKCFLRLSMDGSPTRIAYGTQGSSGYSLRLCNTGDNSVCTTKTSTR
assayMethodText: Kallikrein inhibition assay (FLINT) utilizing a quenched AMC peptide substrate Z-Gly-Pro-Arg-AMC
Type: biochemical
assayConditions: kinetic (KIN) reads; unit μM; read-out: Kallikrein KIN Inh IC50
Catalogue of IC50 values
Field format: number, assumed µM, no unit text.

# compound, measurementTarget, endpointLabel, endpointResult
data = [
    ("C[C@H]1C[C@H](c2ncc(-c3ccnc(C#N)c3)[nH]2)n2c1cc(-c1c(-n3cnnn3)ccc(Cl)c1F)cc2=O (relative stereo)", "human plasma kallikrein (Homo sapiens, UniProt P03952)", "IC50", 1.2),
]

(Q) Data request, read-out IC50, for C[C@H]1C[C@@H](c2ncc(-c3c(C#N)cnn3C)[nH]2)n2c1cc(-c1c(-n3cnnn3)ccc(Cl)c1F)cc2=O
(A) 4.7

* * *

IC50 by entry:
measurementTarget: Factor XIa (Homo sapiens, UniProt P03951)
Sequence (P03951 388-625 limits assumed): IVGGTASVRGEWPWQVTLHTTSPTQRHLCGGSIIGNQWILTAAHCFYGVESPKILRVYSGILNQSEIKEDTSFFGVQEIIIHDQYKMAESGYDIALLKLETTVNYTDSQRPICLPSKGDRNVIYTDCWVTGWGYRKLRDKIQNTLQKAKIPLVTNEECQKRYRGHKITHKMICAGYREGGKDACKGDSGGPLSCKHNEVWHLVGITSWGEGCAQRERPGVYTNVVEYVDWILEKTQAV
Sequence (P03951 19-387 partner limits assumed): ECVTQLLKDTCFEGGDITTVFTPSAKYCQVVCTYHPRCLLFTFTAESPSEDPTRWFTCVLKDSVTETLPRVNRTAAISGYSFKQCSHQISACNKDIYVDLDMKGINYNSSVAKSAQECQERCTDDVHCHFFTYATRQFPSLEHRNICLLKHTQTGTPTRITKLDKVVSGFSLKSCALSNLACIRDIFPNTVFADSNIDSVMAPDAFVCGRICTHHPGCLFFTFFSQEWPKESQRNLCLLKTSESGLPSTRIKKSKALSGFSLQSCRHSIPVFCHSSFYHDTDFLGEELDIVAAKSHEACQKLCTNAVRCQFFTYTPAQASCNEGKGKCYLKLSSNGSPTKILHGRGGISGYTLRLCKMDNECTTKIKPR
assayMethodText: Factor XIa inhibition assay (FLINT) utilizing a fluorophore-quencher pair peptide substrate 5Fam-[…]-K5Tamra
Type: biochemical
assayConditions: kinetic (KIN) reads; unit μM; read-out: FXIa KIN Inh IC50
Provide the reading as a plain figure in µM.

Worked examples follow.
# compound, endpointLabel, endpointResult
records = [
    ("C[C@H]1C[C@@H](c2ncc(-c3ccc(N)nc3F)[nH]2)n2c1cc(-c1cc(Cl)ccc1-n1cnnn1)cc2=O (single isomer, unassigned)", "IC50", 1.5),
    ("C[C@@H]1C[C@H](c2ncc(-c3ccn4nccc4c3)[nH]2)n2c1cc(-c1c(-n3cnnn3)ccc(Cl)c1F)cc2=O (stereo in doubt)", "IC50", 7.9),
    ("C[C@@H]1C[C@H](c2ncc(-c3cnnn3C)[nH]2)n2c1nc(-c1c(-n3cnnn3)ccc(Cl)c1F)cc2=O (relative stereo)", "IC50", 2.7),
    ("COC(=O)Nc1ccc(-c2cnc([C@@H]3C[C@H](C)c4cc(-c5c(-n6cnnn6)ccc(Cl)c5F)cc(=O)n43)[nH]2)cc1 (relative stereo)", "IC50", 1.7),
    ("C[C@H]1C[C@@H](c2ncc(-c3ccc4nccn4c3)[nH]2)n2c1cc(-c1c(-n3cnnn3)ccc(Cl)c1F)cc2=O (stereo in doubt)", "IC50", 3),
]

Kindly consider the entry below.
(Q) GET /values?readout=IC50&system=Factor XIa (Homo sapiens, UniProt P03951)&item= Nc1ccc(-c2cnc([C@H]3CC4(CC4)c4cc(-c5c(-n6cnnn6)ccc(Cl)c5F)cc(=O)n43)[nH]2)c(F)n1
(A) 1.1

* * *

Reported values of IC50 for individual entries
measurementTarget: human plasma kallikrein (Homo sapiens)
assayMethodText: Kallikrein inhibition assay (FLINT) utilizing a quenched AMC peptide substrate Z-Gly-Pro-Arg-AMC
Format: biochemical
assayConditions: kinetic (KIN) reads; values in nM; read-out: Kallikrein KIN Inh IC50
Quick reminder: number only, in nM, skip the unit.

# compound, IC50 (nM)
records = [
    ("C[C@H]1C[C@@H](c2ncc(-c3ccc(N)nn3)[nH]2)n2c1cc(-c1c(-n3cnnn3)ccc(Cl)c1F)cc2=O (relative stereo) [Example 10]", 345),
    ("CC1CC(c2ncc(-c3ccnc(CO)c3F)[nH]2)n2c1nc(-c1c(-n3cnnn3)ccc(Cl)c1F)cc2=O (single isomer, unassigned) [Example 77]", 167),
    ("Nc1ccc(-c2cnc(C3CCCc4cc(-c5c(-n6cnnn6)ccc(Cl)c5F)cc(=O)n43)[nH]2)c(F)n1 (single isomer, unassigned) [Cmpd (III)]", 100),
]

(Q) Please report the recorded IC50 for Nc1ccc(-c2cnc(C3CCCCc4cc(-c5c(-n6cnnn6)ccc(Cl)c5F)cc(=O)n43)[nH]2)c(F)n1 (stereo not drawn) [Cmpd (IV)] .
(A) 160

(Q) Item under review: C[C@@H]1C[C@H](c2nc(-c3ncc(N)nc3Cl)c[nH]2)n2c1nc(-c1c(-n3cnnn3)ccc(Cl)c1F)cc2=O (single isomer, unassigned) [Example 94] . Reported IC50?
(A) 12

(Q) For the compound shown here, C[C@H]1C[C@@H](c2ncc(-c3ccc(N)nc3F)[nH]2)n2c1cc(-c1cc(Cl)ccc1-n1cnnn1)cc2=O [Example 29] , give the reported IC50.
(A) 39.5

(Q) Could you tell me which IC50 is on file for C[C@H]1C[C@@H](c2ncc(-c3ccnc(CO)c3F)[nH]2)n2c1cc(-c1c(-n3cnnn3)ccc(Cl)c1F)cc2=O (relative stereo) [Example 2] ?
(A) 170

(Q) Report IC50 for CNC(=O)c1cc(-c2cnc([C@@H]3C[C@H](C)c4cc(-c5c(-n6cnnn6)ccc(Cl)c5F)cc(=O)n43)[nH]2)ccn1 [Example 13] please.
(A) 36.9

* * *

measurementTarget: human plasma kallikrein (Homo sapiens, UniProt P03952)
assayMethodText: Kallikrein inhibition assay (FLINT) utilizing a quenched AMC peptide substrate Z-Gly-Pro-Arg-AMC
Format: biochemical
assayConditions: kinetic (KIN) reads; values in nM; read-out: Kallikrein KIN Inh IC50
endpointLabel: IC50 (nM)
Write it as a number; the unit nM goes unstated.

Reference set, count: 5
# compound, endpointLabel, readingUnit, endpointResult
records = [
    ("C[C@@H]1C[C@H](c2ncc(-c3cnc(N)nc3)[nH]2)n2c1nc(-c1c(-n3cnnn3)ccc(Cl)c1F)cc2=O (stereo in doubt) [Example 114]", "IC50", "nM", 284),
    ("C[C@@H]1CC(c2ncc(-c3cnc(N)c(F)c3)[nH]2)n2c1cc(-c1c(-n3cnnn3)ccc(Cl)c1F)cc2=O (stereo in doubt) [Example 60]", "IC50", "nM", 185),
    ("COc1cc(-c2cnc([C@H]3C[C@@H](C)c4nc(-c5c(-n6cnnn6)ccc(Cl)c5F)cc(=O)n43)[nH]2)ccn1 (stereo in doubt) [Example 99]", "IC50", "nM", 23.8),
    ("C[C@@H]1C[C@H](c2ncc(-c3ccc4nn(C)cc4c3)[nH]2)n2c1cc(-c1c(-n3cnnn3)ccc(Cl)c1F)cc2=O (stereo in doubt) [Example 47]", "IC50", "nM", 21.7),
    ("C[C@H]1C[C@@H](c2ncc(-c3ccc(N)nc3F)[nH]2)n2c1cc(-c1c(-n3cnnn3)ccc(Cl)c1F)cc2=O [Example 67]", "IC50", "nM", 20.6),
]

(Q) Look at this compound and give its reported IC50. Cc1nc(N)ccc1-c1cnc([C@@H]2C[C@@H](C)c3cc(-c4c(-n5cnnn5)ccc(Cl)c4F)cc(=O)n32)[nH]1 [Example 50]
(A) 16

(Q) Sample C[C@H]1C[C@@H](c2nc(-c3ncc(N)nc3Cl)c[nH]2)n2c1nc(-c1c(-n3cnnn3)ccc(Cl)c1F)cc2=O [Example 93] — what was its IC50?
(A) 20.8

(Q) Query: IC50; subject: Nc1nsc2cc(-c3cnc([C@@H]4CC5(CC5)c5nc(-c6c(-n7cnnn7)ccc(Cl)c6F)cc(=O)n54)[nH]3)ccc12 [Example 81]
(A) 0.9

* * *

measurementTarget: human plasma kallikrein (Homo sapiens)
assayMethodText: Kallikrein inhibition assay (FLINT) utilizing a quenched AMC peptide substrate Z-Gly-Pro-Arg-AMC
Assay type: biochemical
assayConditions: kinetic (KIN) reads; values in nM; read-out: Kallikrein KIN Inh IC50
# IC50 listing for each entry below
Your answer should be a plain number; it is taken to be in nM.

# molecule, measurementTarget, endpointResult
data = [
    ("O=c1cc(-c2c(-n3cnnn3)ccc(Cl)c2F)cc2n1[C@H](c1ncc(-c3ccnc(CO)c3F)[nH]1)CC21CC1", "human plasma kallikrein (Homo sapiens)", 38),
]

API: the following record is the query input.
(Q) Record lookup: for human plasma kallikrein (Homo sapiens), what IC50 belongs to COc1nc(N)cnc1-c1cnc([C@@H]2C[C@H](C)c3nc(-c4c(-n5cnnn5)ccc(Cl)c4F)cc(=O)n32)[nH]1 (relative stereo) ?
(A) 31.9

* * *

measurementTarget: UniProt:P03951
assayMethodText: Factor XIa inhibition assay (FLINT) utilizing a fluorophore-quencher pair peptide substrate 5Fam-[…]-K5Tamra
Assay type: biochemical
assayConditions: kinetic (KIN) reads; values in nM; read-out: FXIa KIN Inh IC50
endpointLabel: IC50 (nM)
Number in nM, nothing else.

Before answering, review these 2 worked examples.
# molecule, endpointResult
records = [
    ("C[C@H]1C[C@@H](c2ncc(-c3ccc(N)nc3F)[nH]2)n2c1cc(-c1c(-n3cnnn3)ccc(Cl)c1F)cc2=O", 0.4),
    ("C[C@@H]1C[C@@H](c2ncc(-c3ccc(N)nc3Cl)[nH]2)n2c1cc(-c1c(-n3cnnn3)ccc(Cl)c1F)cc2=O", 0.4),
]

(Q) Return reported IC50; argument: C[C@H]1C[C@@H](c2ncc(-c3ccnc(CO)c3F)[nH]2)n2c1cc(-c1c(-n3cnnn3)ccc(Cl)c1F)cc2=O (relative stereo)
(A) 22

(Q) For the molecule shown here, C[C@H]1C[C@@H](c2ncc(-c3ccn4nccc4c3)[nH]2)n2c1cc(-c1c(-n3cnnn3)ccc(Cl)c1F)cc2=O (stereo in doubt) , give the reported IC50.
(A) 43.7

(Q) Field request: IC50 | item: COc1nccc(-c2cnc([C@H]3C[C@H](C)c4nc(-c5c(-n6cnnn6)ccc(Cl)c5F)cc(=O)n43)[nH]2)n1 (relative stereo)
(A) 113

(Q) Bench note: what IC50 did COC(=O)Nc1ccc(-c2cnc([C@H]3C[C@H](C)c4nc(-c5c(-n6cnnn6)ccc(Cl)c5F)cc(=O)n43)[nH]2)cn1 (stereo in doubt) show?
(A) 247

(Q) Consider the molecule C[C@H]1C[C@@H](c2ncc(-c3cc4c(cn3)NC(=O)CC4)[nH]2)n2c1cc(-c1c(-n3cnnn3)ccc(Cl)c1F)cc2=O (single isomer, unassigned) [Example 9] and give its measured IC50.
(A) 6.9

(Q) Reported IC50 for O=c1cc(-c2c(-n3cnnn3)ccc(Cl)c2F)nc2n1[C@H](c1nc(-c3ccnc(OCC(O)C(F)(F)F)c3F)c[nH]1)CC21CC1 (single isomer, unassigned) [Example 74] : what is it?
(A) 32.1
